Measurement target: h-TGR5 (Homo sapiens, UniProt Q8TDU6)
Construct: expressed in transfected cells
Assay protocol: TGR5 cAMP Assay using Cisbio cAMP Dynamic2 htrf kit (hTGR5CRE-luc HEK 293 cells)
Type: cell-based
Experimental parameters: h-TGR5 cAMP EC50, Table 1; read-out: cAMP (EC50)
Property measured: EC50

As a guide, the following entries are already answered.
CC(C)(c1ccc(Cl)c(Cl)c1)c1cnc(SCc2c(F)cc(C(=O)NCCS(=O)(=O)O)cc2F)n1-c1ccc(F)c(Cl)c1 ... < 100 nM
CC(C)(c1ccc(Cl)c(Cl)c1)c1cnc(SCc2ccc(Cl)c(-c3nnn[nH]3)c2)n1-c1cccc(Cl)c1 ... 100 to 1000 nM
COc1cc(C(C)(C)c2cnc(SCc3ccc(S(=O)(=O)NC(=O)NN4CCCC4)cc3F)n2-c2ccc(F)cc2)ccc1Cl ... 100 to 1000 nM

Now, please, on to the next compound.
`CC(C)(c1ccc(Cl)c(Cl)c1)c1cnc(SCc2c(F)cc(C(=O)O)cc2F)n1-c1ccc(F)c(C(F)F)c1` on h-TGR5 (Homo sapiens, UniProt Q8TDU6) gives EC50 = 100 to 1000 nM

* * *

# EC50 listing for each entry below
Measurement target: h-TGR5 (Homo sapiens, UniProt Q8TDU6)
Construct: expressed in transfected cells
Assay protocol: TGR5 cAMP Assay using Cisbio cAMP Dynamic2 htrf kit (hTGR5CRE-luc HEK 293 cells)
Type: cell-based
Experimental parameters: h-TGR5 cAMP EC50, Table 1; read-out: cAMP (EC50)

# count of solved cases: 10
CC(C)(c1ccc(S(N)(=O)=O)cc1)c1cnc(SCc2ccc(S(=O)(=O)NC(=O)NN3CCOCC3)cc2Cl)n1-c1ccc(F)c(Cl)c1 ... 1000 to 10000 nM
COc1ccc(C2CCCCN2S(=O)(=O)c2ncc(C(C)(C)c3ccc(Cl)c(Cl)c3)n2-c2ccc(F)cc2)cn1 (stereo not shown) ... 100 to 1000 nM
COc1ccc(C(C)(C)c2cnc(SCc3ccc(F)c(S(N)(=O)=O)c3)n2-c2ccc(F)cc2)cc1Cl ... < 100 nM
CC(C)(c1ccc(S(N)(=O)=O)c(Cl)c1)c1cnc(SCc2c(F)cc(C(=O)O)cc2F)n1-c1ccc(F)cc1 ... < 100 nM
CC(C)(c1ccc(Cl)c(Cl)c1)c1cnc(SCc2c(F)cc(C(=O)O)cc2F)n1-c1ccc(F)cc1 ... 100 to 1000 nM
COc1cc(C(C)(C)c2cnc(SCc3ccc(S(=O)(=O)NC(=O)NN4CCCC4)cc3Cl)n2-c2ncc(F)cc2F)ccc1Cl ... 1000 to 10000 nM
CC(C)(O)COc1ccc(CSc2ncc(C(C)(C)c3ccc(Cl)c(Cl)c3)n2-c2ccc(F)cc2)cc1S(N)(=O)=O ... 100 to 1000 nM
COc1ccc(C(C)(C)c2cnc(SCc3cc(-c4nnn[nH]4)c(Cl)cc3Cl)n2-c2ccc(F)cc2)cc1Cl ... 100 to 1000 nM
COc1ccc(C(C)(C)c2cnc(SCc3ccc(Cl)c(C(=O)O)c3)n2-c2ccc(F)cc2)cc1Cl ... 100 to 1000 nM
COc1cc(-n2c(C(C)(C)c3ccc(S(C)(=O)=O)cc3)cnc2SCc2ccc(S(=O)(=O)NC(=O)NN3CCCC3)cc2Cl)ccc1F ... 1000 to 10000 nM

Query `COc1cc(-n2c(C(C)(C)c3ccc(F)c(C#N)c3)cnc2SCc2ccc(S(=O)(=O)NC(=O)NN3CCCC3)cc2Cl)ccc1F` yields EC50 of 100 to 1000 nM

* * *

Measurement target: human TGR5 (h-TGR5) (Homo sapiens, UniProt Q8TDU6)
Construct: expressed in transfected cells
Sequence (Q8TDU6 whole entry): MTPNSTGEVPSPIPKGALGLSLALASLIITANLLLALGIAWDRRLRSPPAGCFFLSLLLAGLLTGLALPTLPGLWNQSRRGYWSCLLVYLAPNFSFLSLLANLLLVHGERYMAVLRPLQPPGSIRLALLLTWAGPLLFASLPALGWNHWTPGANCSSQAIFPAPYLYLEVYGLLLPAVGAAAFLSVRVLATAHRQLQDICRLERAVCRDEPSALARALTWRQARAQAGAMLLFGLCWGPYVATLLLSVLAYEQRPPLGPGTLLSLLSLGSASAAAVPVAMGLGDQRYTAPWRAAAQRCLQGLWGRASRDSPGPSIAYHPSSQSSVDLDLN
Assay protocol: TGR5/CRE-Luciferiase Assay (HEK 293 hTGR5/CRE-Luc cells)
Type: cell-based
Experimental parameters: h-TGR5 CRE-Luc EC50, Table 1; read-out: CRE-Luc (EC50)
Each record here notes measured EC50.

Known EC50 results, listed for orientation:
COc1cc(-n2c(C(C)(C)c3ccc(Cl)c(Cl)c3)cnc2SCc2c(F)cc(C(=O)NCCC(=O)O)cc2F)ccc1F ... < 100 nM
CC(C)(c1ccc(Cl)c(Cl)c1)c1cnc(COc2ccc(C(=O)O)cn2)n1-c1ccc(F)cc1 ... 100 to 1000 nM
CC(C)(c1ccc(Cl)c(Cl)c1)c1cnc(COc2c(F)cccc2Cl)n1-c1ccc(F)cc1 ... 100 to 1000 nM
Cc1cc(-n2c(C(C)(C)c3ccc(F)c(F)c3)cnc2SCc2ccc(S(=O)(=O)NC(=O)NN3CCCC3)cc2Cl)ccc1F ... 100 to 1000 nM
CC(C)(c1ccc(Cl)c(Cl)c1)c1cnc(COc2ccc(C#N)cn2)n1-c1ccc(F)cc1 ... 100 to 1000 nM
COc1cc(-n2c(C(C)(C)c3ccc(S(C)(=O)=O)c(Cl)c3)cnc2SCc2ccc(S(=O)(=O)NC(=O)NN3CCCC3)cc2Cl)ccc1F ... 100 to 1000 nM
COc1cc(C(C)(C)c2cnc(SCc3c(F)cc(C(=O)NCS(=O)(=O)O)cc3F)n2-c2ccc(F)cc2)ccc1Cl ... < 100 nM
CC(C)(c1ccc(Cl)c(Cl)c1)c1cnc(SCc2c(F)cc(F)cc2F)n1-c1ccc(F)cc1 ... < 100 nM
COc1cc(-n2c(C(C)(C)c3ccc(Cl)c(Cl)c3)cnc2SCc2c(F)cc(C(=O)NCS(=O)(=O)O)cc2F)ccc1F ... < 100 nM
COc1cc(C(C)(C)c2cnc(SCc3ccc(C(=O)O)c(F)c3)n2-c2ccc(F)cc2)ccc1Cl ... 100 to 1000 nM

Record CC(Oc1ccc(Cl)c(Cl)c1)c1ncc(C(C)(C)c2ccc(Cl)c(Cl)c2)n1-c1ccc(F)cc1 (stereo not shown) , field EC50: 1000 to 10000 nM

Entry under test: `CC(C)(c1ccc(Cl)c(Cl)c1)c1cnc(SCc2ccc(F)cc2Cl)n1-c1cc(F)cc(F)c1` . Its EC50 was 100 to 1000 nM

Lookup result for `COc1cc(C(C)(C)c2cnc(SCc3c(F)cc(C(=O)O)cc3Cl)n2-c2ccc(F)cn2)ccc1Cl` ; measured EC50: < 100 nM

Input `CC(C)(c1ccc(Cl)c(Cl)c1)c1cnc(SCc2ccc(F)cc2Cl)n1-c1ccc(F)c(C#N)c1` . Output EC50: 100 to 1000 nM

The measured EC50 associated with `CC(C)(c1ccc(Cl)c(S(N)(=O)=O)c1)c1cnc(SCc2c(F)cc(C(=O)O)cc2Cl)n1-c1ccc(F)cc1` reads 100 to 1000 nM

The recorded EC50 for `CC(C)(c1ccc(Cl)c(Cl)c1)c1cnc(COc2ccc(C(=O)O)cc2Cl)n1-c1ccc(F)cc1` is 1000 to 10000 nM

* * *

Measurement target: human TGR5 (h-TGR5) (Homo sapiens)
Construct: expressed in transfected cells
Assay protocol: TGR5/CRE-Luciferiase Assay (HEK 293 hTGR5/CRE-Luc cells)
Type: cell-based
Experimental parameters: h-TGR5 CRE-Luc EC50, Table 1; read-out: CRE-Luc (EC50)
Each item that follows carries a reported EC50.

Example results:
COc1cc(C(C)(C)c2cnc(SCc3c(F)cc(CCCCNC(=N)N)cc3F)n2-c2ccc(F)cc2)ccc1Cl ... < 100 nM
COc1ccc(C(C)(C)c2cnc(SCc3c(F)cccc3C(F)(F)F)n2-c2ccc(F)cc2)cc1OC ... < 100 nM
CC(C)(c1ccc(Cl)c(Cl)c1)c1cnc(SCc2c(F)cccc2Cl)n1-c1ccc(Cl)c(Cl)c1 ... 100 to 1000 nM

Kindly note the recorded EC50 for `CC(C)(c1ccc(Cl)c(Cl)c1)c1cnc(SCc2c(F)cc(C(=O)O)cc2Cl)n1-c1ccc(F)c(OCCCO)c1` , which is 100 to 1000 nM

Documented EC50 of `CC(C)(c1ccc(Cl)c(Cl)c1)c1cnc(SCc2ccc(OCCCO)c(C#N)c2)n1-c1ccc(F)cc1` : 100 to 1000 nM

Short answer for `CC(C)(c1ccc(Cl)c(Cl)c1)c1cnc(SCc2ccc(OCCO)c(S(N)(=O)=O)c2)n1-c1ccc(F)cc1` : EC50 was < 100 nM

Sure, the documented EC50 for `COc1cc(-n2c(C(C)(C)c3ccc(S(N)(=O)=O)cc3)cnc2SCc2c(F)cc(C(=O)O)cc2F)ccc1F` is 100 to 1000 nM

Sure, the documented EC50 for `CC(C)(c1ccc(Cl)c(Cl)c1)c1cnc(CCc2ccc(S(N)(=O)=O)cc2Cl)n1-c1ccc(F)cc1` is 100 to 1000 nM

Record `CC(C)(c1ccc(Cl)c(Cl)c1)c1cnc(SCc2c(F)cccc2Cl)n1-c1ccc(F)cc1` . Reported EC50: < 100 nM

Record summary for `CC(C)NC(=O)NS(=O)(=O)c1ccc(CSc2ncc(C(C)(C)c3ccc(F)c(F)c3)n2-c2ccc(F)cc2)c(Cl)c1` : reported EC50 = 100 to 1000 nM
